species: Rattus norvegicus; experiment: Open TG-GATES - Regimen: Single; format: toxicity, organism-based, Sprague-Dawley; design: regimen Single, gender Male, age 6 weeks; conditions: in vivo, po, 300 mg/kg, 24 h, tissue Blood, route gavage, dose level Middle
measurement-label: Hb
# answer = value followed by unit

Known Hb results, listed for orientation:
>>> value_observed("COC1=CC(=O)C[C@@H](C)[C@]12Oc1c(Cl)c(OC)cc(OC)c1C2=O")
"13.3 g/dL"
>>> value_observed("CCOC(=O)CCC(=O)O[C@H]1[C@H](O[C@@H]2[C@@H](C)[C@H](O[C@H]3C[C@@](C)(OC)[C@@H](O)[C@H](C)O3)[C@@H](C)C(=O)O[C@H](CC)[C@@](C)(O)[C@H](O)[C@@H](C)C(=O)[C@H](C)C[C@@]2(C)O)O[C@H](C)C[C@@H]1N(C)C [ERYTHROMYCIN ETHYLSUCCINATE]")
"13.7 g/dL"
>>> value_observed("COc1ccc2[nH]c([S+]([O-])Cc3ncc(C)c(OC)c3C)nc2c1 (centres undefined)")
"13.5 g/dL"

Shift focus to the following entry.
[in] Suppose we examine the compound `NC(N)=Nc1nc(CSCCC(N)=NS(N)(=O)=O)cs1` ; what Hb value has been reported?
[out] 13.4 g/dL

// provenance: ChEMBL document CHEMBL3885861
